biological target: serotonin transporter (5-HTT) (Rattus norvegicus); assay: Competitive binding at the 5-HTT with [3H]paroxetine
Sequence (P31652 whole entry): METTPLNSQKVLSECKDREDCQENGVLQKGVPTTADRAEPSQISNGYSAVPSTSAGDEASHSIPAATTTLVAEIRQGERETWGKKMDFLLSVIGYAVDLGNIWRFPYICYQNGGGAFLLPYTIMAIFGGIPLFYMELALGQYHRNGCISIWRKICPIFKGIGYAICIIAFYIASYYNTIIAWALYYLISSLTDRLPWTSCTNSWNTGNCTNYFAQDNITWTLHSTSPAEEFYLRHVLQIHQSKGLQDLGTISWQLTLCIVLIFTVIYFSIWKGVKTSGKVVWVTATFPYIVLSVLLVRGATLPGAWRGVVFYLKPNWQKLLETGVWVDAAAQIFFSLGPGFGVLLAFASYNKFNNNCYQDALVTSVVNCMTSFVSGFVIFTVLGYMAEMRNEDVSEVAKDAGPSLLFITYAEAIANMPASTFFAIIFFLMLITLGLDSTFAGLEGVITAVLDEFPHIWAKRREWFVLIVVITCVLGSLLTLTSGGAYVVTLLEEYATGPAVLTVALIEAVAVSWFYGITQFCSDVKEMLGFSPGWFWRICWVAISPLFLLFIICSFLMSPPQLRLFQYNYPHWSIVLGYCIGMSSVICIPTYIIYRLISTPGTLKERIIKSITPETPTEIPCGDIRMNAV
attribute_measured: pKi
In simple prose, pKi is minus the logarithm base ten of a concentration in moles per litre.

# lookup: pKi of COc1ccc([C@H]2C[C@@H]3CC[C@H]([C@H]2C(=O)OCCc2cc(Br)c(N)c(Br)c2)N3C)cc1 [8h]
8.70

# lookup: pKi of COc1ccc([C@H]2C[C@@H]3CC[C@H]([C@H]2C(=O)OC(C)C)N3C)cc1 [8a]
6.87

# lookup: pKi of COc1ccc([C@H]2C[C@@H]3CC[C@H]([C@H]2C(=O)OCCc2cc(I)c(N)c(I)c2)N3C)cc1 [8j]
9.00

# lookup: pKi of COc1ccc([C@H]2C[C@@H]3CC[C@H]([C@H]2C(=O)OC2CCC2)N3C)cc1 [8c]
7.00

# lookup: pKi of COc1ccc([C@H]2C[C@@H]3CC[C@H]([C@H]2C(=O)OCCc2ccc(N)cc2)N3C)cc1 [8e]
8.08

# lookup: pKi of COc1ccc([C@H]2C[C@@H]3CC[C@H]([C@H]2C(=O)OCCc2ccc(N)c(Br)c2)N3C)cc1 [8g]
8.39

# lookup: pKi of COC(=O)[C@H]1[C@@H](c2ccc(OC)c(F)c2)C[C@@H]2CC[C@H]1N2C [7c]
8.32

# lookup: pKi of COc1ccc([C@H]2C[C@@H]3CC[C@H]([C@H]2C(=O)OCCc2ccc(NC(C)=O)cc2)N3C)cc1 [8f]
8.26

# lookup: pKi of COc1ccc([C@H]2C[C@@H]3CC[C@H]([C@H]2c2cc(-c4ccc(C)cc4)no2)N3C)cc1 [compound 9]
6.07

# lookup: pKi of COc1ccc([C@H]2C[C@@H]3CC[C@H]([C@H]2C(=O)OCCc2ccc(N)c(I)c2)N3C)cc1 [8i]
8.46

# lookup: pKi of COc1ccc([C@H]2C[C@@H]3CC[C@H]([C@H]2C(=O)OC2CC2)N3C)cc1 [8b]
7.54

# lookup: pKi of COC(=O)[C@H]1[C@@H](c2cc(I)c(OC)c(I)c2)C[C@@H]2CC[C@H]1N2C [7g]
8.12

# lookup: pKi of CCOc1ccc([C@H]2C[C@@H]3CC[C@H]([C@H]2C(=O)OC)N3C)cc1 [7b]
8.77

# lookup: pKi of COc1ccc([C@H]2C[C@@H]3CC[C@H]([C@H]2C(=O)OCCc2ccc([N+](=O)[O-])cc2)N3C)cc1 [8d]
8.54

# lookup: pKi of COC(=O)[C@H]1[C@@H](c2ccc(OC)cc2)C[C@@H]2CC[C@H]1N2C [7a]
8.37

# lookup: pKi of COC(=O)[C@H]1[C@@H](c2ccc(OC)c(Br)c2)C[C@@H]2CC[C@H]1N2C [7d]
8.51

====

target: norepinephrine transporter (NET) (Rattus norvegicus, UniProt Q63380); assay: Competitive binding at the NET with [3H]nisoxetine
Sequence (Q63380 1-617): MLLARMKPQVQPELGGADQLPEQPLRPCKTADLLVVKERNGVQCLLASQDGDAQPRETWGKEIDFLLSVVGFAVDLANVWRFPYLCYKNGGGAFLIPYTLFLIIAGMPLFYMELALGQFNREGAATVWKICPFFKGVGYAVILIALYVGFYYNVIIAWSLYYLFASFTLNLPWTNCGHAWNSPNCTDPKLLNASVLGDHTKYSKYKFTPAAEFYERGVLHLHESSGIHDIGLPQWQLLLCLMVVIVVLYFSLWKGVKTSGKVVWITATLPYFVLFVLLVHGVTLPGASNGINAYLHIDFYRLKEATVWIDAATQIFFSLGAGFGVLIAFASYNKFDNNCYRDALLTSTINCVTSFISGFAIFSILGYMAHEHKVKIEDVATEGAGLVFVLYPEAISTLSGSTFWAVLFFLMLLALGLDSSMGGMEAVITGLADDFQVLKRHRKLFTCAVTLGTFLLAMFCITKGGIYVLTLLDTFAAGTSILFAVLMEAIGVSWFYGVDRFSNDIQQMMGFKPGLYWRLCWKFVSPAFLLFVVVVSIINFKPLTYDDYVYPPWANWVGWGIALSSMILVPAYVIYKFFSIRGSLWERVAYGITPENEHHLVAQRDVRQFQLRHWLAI
attribute_measured: pKi
In simple prose, pKi is minus the logarithm base ten of a concentration in moles per litre.

Take a look at these entries with their results.
compound: COC(=O)[C@H]1[C@@H](c2ccc(OC)cc2)C[C@@H]2CC[C@H]1N2C
measured_target: norepinephrine transporter (NET) (Rattus norvegicus, UniProt Q63380)
pKi: 5.95

compound: COc1ccc([C@H]2C[C@@H]3CC[C@H]([C@H]2C(=O)OC2CC2)N3C)cc1
measured_target: norepinephrine transporter (NET) (Rattus norvegicus, UniProt Q63380)
pKi: 5.91

compound: COc1ccc([C@H]2C[C@@H]3CC[C@H]([C@H]2C(=O)OCCc2ccc(N)c(I)c2)N3C)cc1
measured_target: norepinephrine transporter (NET) (Rattus norvegicus, UniProt Q63380)
pKi: 5.69

compound: CCOc1ccc([C@H]2C[C@@H]3CC[C@H]([C@H]2C(=O)OC)N3C)cc1
measured_target: norepinephrine transporter (NET) (Rattus norvegicus, UniProt Q63380)
pKi: 5.77

compound: COc1ccc([C@H]2C[C@@H]3CC[C@H]([C@H]2C(=O)OCCc2cc(Br)c(N)c(Br)c2)N3C)cc1
measured_target: norepinephrine transporter (NET) (Rattus norvegicus, UniProt Q63380)
pKi: 5.57

Form entry - test system: norepinephrine transporter (NET) (Rattus norvegicus, UniProt Q63380); read-out: pKi; molecule: `COc1ccc([C@H]2C[C@@H]3CC[C@H]([C@H]2C(=O)OC(C)C)N3C)cc1`
5.70

Form entry - test system: norepinephrine transporter (NET) (Rattus norvegicus, UniProt Q63380); read-out: pKi; molecule: `COC(=O)[C@H]1[C@@H](c2ccc(OC)c(Br)c2)C[C@@H]2CC[C@H]1N2C`
6.80

Values were extracted from paper PMC2841478.
